- Tested on: pentylentetrazole (PTZ)-induced convulsion
- experiment summary: Anti-convulsant effect, pentylentetrazole (PTZ) test
- Format: in vivo
- test context: 10 mg/kg intraperitoneally; PTZ 80 mg/kg subcutaneously; negative control 46.7 ± 3.3
parameter: Duration of convulsion (min)
Respond numerically; units are min and should not be typed.

Exercise: For the compound O=c1[nH]c2ccccc2c(=O)n1CCNCCCNCCn1c(=O)[nH]c2ccccc2c1=O , what Duration of convulsion is on record?
Key: 28.7

Exercise: For the compound O=c1[nH]c2ccccc2c(=O)n1CCCNCCCCN(CCCn1c(=O)[nH]c2ccccc2c1=O)Cc1ccccc1 , what Duration of convulsion is on record?
Key: 39.8

Exercise: For the compound COCC(=O)N(CCCCNCCCn1c(=O)[nH]c2ccccc2c1=O)CCCn1c(=O)[nH]c2ccccc2c1=O , what Duration of convulsion is on record?
Key: 11.2

Exercise: For the compound CC(C)(C)OC(=O)N(CCCCNCCCn1c(=O)[nH]c2ccccc2c1=O)CCCn1c(=O)[nH]c2ccccc2c1=O , what Duration of convulsion is on record?
Key: 44.9

Exercise: For the compound CC(=O)N(CCCCNCCCn1c(=O)[nH]c2ccccc2c1=O)CCCn1c(=O)[nH]c2ccccc2c1=O , what Duration of convulsion is on record?
Key: 11.8

Exercise: For the compound O=c1[nH]c2ccccc2c(=O)n1CCCNCCCCNCCCn1c(=O)[nH]c2ccccc2c1=O , what Duration of convulsion is on record?
Key: 35.7

Exercise: For the compound O=c1[nH]c2ccccc2c(=O)n1CCCNCC=CCNCCCn1c(=O)[nH]c2ccccc2c1=O , what Duration of convulsion is on record?
Key: 48.3

Exercise: For the compound O=C(N(CCCCNCCCn1c(=O)[nH]c2ccccc2c1=O)CCCn1c(=O)[nH]c2ccccc2c1=O)C(F)(F)F , what Duration of convulsion is on record?
Key: 25.1

Exercise: For the compound Cn1c(=O)n(CCCNCCCCNCCCn2c(=O)c3ccccc3n(C)c2=O)c(=O)c2ccccc21 , what Duration of convulsion is on record?
Key: 35.8

Exercise: For the compound O=C(c1ccccc1)N(CCCCNCCCn1c(=O)[nH]c2ccccc2c1=O)CCCn1c(=O)[nH]c2ccccc2c1=O , what Duration of convulsion is on record?
Key: 49.9

Exercise: For the compound CCCCCCN(CCCCN(CCCn1c(=O)[nH]c2ccccc2c1=O)C(=O)OC(C)(C)C)CCCn1c(=O)[nH]c2ccccc2c1=O , what Duration of convulsion is on record?
Key: 44.1

Exercise: For the compound Cc1ccc(S(=O)(=O)N(CCCCNCCCn2c(=O)[nH]c3ccccc3c2=O)CCCn2c(=O)[nH]c3ccccc3c2=O)cc1 , what Duration of convulsion is on record?
Key: 42.3

Exercise: For the compound NCCCNCCCCNCCCn1c(=O)[nH]c2ccccc2c1=O , what Duration of convulsion is on record?
Key: 43.9

Exercise: For the compound CCOC(=O)N(CCCCN(CCCn1c(=O)[nH]c2ccccc2c1=O)C(=O)OCC)CCCn1c(=O)[nH]c2ccccc2c1=O , what Duration of convulsion is on record?
Key: 6.4

Exercise: For the compound CCOC(=O)N(CCCCN(CCCn1c(=O)[nH]c2ccccc2c1=O)C(C)=O)CCCn1c(=O)[nH]c2ccccc2c1=O , what Duration of convulsion is on record?
Key: 2.9
